molecular target: Rac GTPase-activating protein 1 (Homo sapiens) (UniProt Q9H0H5); assay: blockers of MgcRacGAP-driven Rac1 GTP hydrolysis – biochemical, ADP Hunter fluorescence, primary and confirmatory, confirmation (AID 624330); details: MgcRacGAP-stimulated Rac1 GTP hydrolysis, at 30 µM, hits give high values, GST-tagged Rac1 F28L mutant substrate;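 further: fluorescence reports GDP produced by GAP-driven GTP hydrolysis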
Sequence (Q9H0H5 whole entry, looked up): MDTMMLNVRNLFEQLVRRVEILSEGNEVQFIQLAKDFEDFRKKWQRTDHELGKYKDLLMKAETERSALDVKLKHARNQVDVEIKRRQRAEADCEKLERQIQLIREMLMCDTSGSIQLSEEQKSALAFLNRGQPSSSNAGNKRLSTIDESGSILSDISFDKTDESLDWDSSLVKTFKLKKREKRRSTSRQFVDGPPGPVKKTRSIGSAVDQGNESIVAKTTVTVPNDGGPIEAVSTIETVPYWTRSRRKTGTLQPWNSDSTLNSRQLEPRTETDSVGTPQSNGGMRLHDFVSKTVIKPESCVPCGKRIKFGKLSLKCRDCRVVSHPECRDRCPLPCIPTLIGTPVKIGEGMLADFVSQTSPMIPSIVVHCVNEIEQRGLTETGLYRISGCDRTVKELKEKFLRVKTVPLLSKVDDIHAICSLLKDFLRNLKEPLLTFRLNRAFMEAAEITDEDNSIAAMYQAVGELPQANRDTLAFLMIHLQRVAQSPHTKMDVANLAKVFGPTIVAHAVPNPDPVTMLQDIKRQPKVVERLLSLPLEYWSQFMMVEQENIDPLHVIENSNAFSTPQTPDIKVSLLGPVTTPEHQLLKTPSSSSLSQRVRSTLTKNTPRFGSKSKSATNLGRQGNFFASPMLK
Hit rate of the full screen: of about 340,000 compounds, about 2,100 (0.62%) were called active. Only a sample is shown. Potency and affinity values are given separately.
OUTCOME MEASURE: inhibition

ENTRY SMILES: CCCn1c(SCCc2ccccc2)nc2c1c(=O)[nH]c(=O)n2C
OUTCOME MEASURE: inhibition
RESULT: -2.73% (inactive)

ENTRY SMILES: Cc1nnc(C)n1/N=C/c1ccc(O)cc1
OUTCOME MEASURE: inhibition
RESULT: 13% (inactive)

ENTRY SMILES: CC(=O)c1cccc(NC(=O)Cn2cnc(S(=O)(=O)N3CCCCC3)c2)c1
OUTCOME MEASURE: inhibition
RESULT: 2.19% (inactive)

ENTRY SMILES: CCN(CC)c1ccc(CNc2ccc3c(c2)ncn3C(C)(C)C)cc1
OUTCOME MEASURE: inhibition
RESULT: 6.25% (inactive)

ENTRY SMILES: CN=c1scc(C)n1/N=C/c1ccc2c(c1)OCO2
OUTCOME MEASURE: inhibition
RESULT: 18.6% (inactive)

ENTRY SMILES: CN=c1scc(-c2cccs2)n1/N=C/c1ccccc1O
OUTCOME MEASURE: inhibition
RESULT: 23.1% (inactive)

Origin of measurements: PubChem BioAssay AID624330
